biological target: human recombinant GSK3β (N-terminal 6His-tagged recombinant enzyme with an H350L mutation) (Homo sapiens); construct: 6His (N); purchased Millipore (Billerica, MA, USA); experiment: GSK-3 assay (Z'-LYTE FRET enzymatic activity); type: biochemical; conditions: 2 nM enzyme, 12.5 µM ATP, 2 µM Ser/Thr 9 peptide, 60 min at room temperature; concentration in M units; read-out: GSK-3 inhibition pEC50 average (converted)
Sequence (P49841 whole entry, stated change not applied): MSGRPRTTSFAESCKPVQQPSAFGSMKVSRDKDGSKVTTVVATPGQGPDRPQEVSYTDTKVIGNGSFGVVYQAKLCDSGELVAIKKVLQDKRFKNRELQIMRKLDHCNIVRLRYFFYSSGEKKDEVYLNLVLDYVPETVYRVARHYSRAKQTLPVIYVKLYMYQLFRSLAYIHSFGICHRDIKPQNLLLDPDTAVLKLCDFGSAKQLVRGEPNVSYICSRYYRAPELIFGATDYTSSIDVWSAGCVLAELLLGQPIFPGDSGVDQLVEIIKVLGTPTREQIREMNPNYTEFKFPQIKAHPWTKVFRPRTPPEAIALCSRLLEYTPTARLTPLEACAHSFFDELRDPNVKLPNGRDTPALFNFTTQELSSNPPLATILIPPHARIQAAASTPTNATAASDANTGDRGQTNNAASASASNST
I'd appreciate it if you could supply log10(EC50) values for the items below.
Kindly note that the scale is log10 and the underlying EC50 is in µM.

Record CN1CC(c2c(C(=O)O)[nH]c3ccc(Br)cc23)N(C)C1=N (stereo not shown) [Compound 2] , field log10(EC50): 1.87

Record CN1C(=N)NCC1c1c(C(=O)O)[nH]c2ccc(Br)cc12 (stereo not shown) [Compound 1] , field log10(EC50): 1.55

Record CN1C(=N)NCC1c1c(C(=O)O)[nH]c2cc(O)c(Br)cc12 (stereo not shown) [Compound 3] , field log10(EC50): 1.05

Record CN1C(N)=NCC1c1c(C(=O)O)[nH]c2ccccc12 (stereo not shown) [Compound 7] , field log10(EC50): 1.63

Record CN1C(=N)N(C)C(c2c(C(=O)O)[nH]c3ccc(Br)cc23)C1O (stereo not shown) [Compound 5] , field log10(EC50): 1.99

Record CN1C(=N)N(C)C(c2c(C(=O)O)[nH]c3cc(O)c(Br)cc23)C1O (stereo not shown) [Compound 6] , field log10(EC50): 0.92

Record CN1CC(c2c(C(=O)O)[nH]c3cc(O)c(Br)cc23)N(C)C1=N (stereo not shown) [Compound 4] , field log10(EC50): 1.19
